assay-text: yeast display, Sf9 membrane polyspecificity reagent, FACS + sequencing; frameworks hold sequencing errors
measurement-type: polyreactivity (PSR sort gate)

ordered-residues	reported-value
QVQLVESGGGLVQAGGSLRLSCAASGSTFSYMGWYRQAPGKERELVAAISYRGGRTYYADSVKGRFTISRDNAKNTVYLQMNSLTPEDTAVYYCNADGGRTYYSRYDYWGQGTQVTVSS	low polyreactivity
QVQLVESGGGLVQAGGSLRLSCAASGSIFWSYDMGWYRQAPGKERELVATITSGDSTYYADSVKGRFTISRDNAKNTVYLQMNSLKPEDTAVYYCNVDVSVEVAYWGQGTQVTVSS	low polyreactivity

---

assay-text: yeast display, Sf9 membrane polyspecificity reagent, FACS + sequencing; frameworks hold sequencing errors
measurement-type: polyreactivity (PSR sort gate)

Solved entries:
ordered-residues	polyreactivity (PSR sort gate)
QVQLVESGGGLVQAGGSLRLSCAASGRTFYVSAMGWYRQAPGKERELVAAISWSGGSTYYADSVKGRFTISRDNAKNTVYLQMNSLKPEDTAVYYCAAQTYQRHVVAYDYWGQGTQVTVSS	low polyreactivity
QVQLVESGGGLVQAGGSLRLSCAASGSIFPNGMGSYRQAPGKERELVATITSGGSTYYADSVKGRFTISRDNAKNTVYLQMNSLKPEETAVYYCADTVYGGYSGSGCNYWGKGTQVTVSS	low polyreactivity
QVQLVESGRGLVQAGGSLRLSCAAAGSTFVSYDLGWSRQAPGKERELLADISWSGVSTDADSVKGRFTLSRDNAKNTVYLQMNSLKPEDPAVYYCAKDSDLYQRGGYYWGQGTQVTVSS	low polyreactivity
QVQLQESGGRLEQAGGSLRPSCAASGSISDGVPMRWNRQAPGEERELVATTVLGATTNYADSVKGRFTISRGNAKHTVYLQMNSLKPEETAVYYCAARLRYDKGFSYWGQGTQVTVSS	low polyreactivity
QVQLVESGGGLVQAGGSLRLSCAASGLTFYRYAMGWYRQARGKERELVAAISRRGGRTYSADSVKGRFTISRDNAKTTVYLQMNSLKPEDTAVYYCAAVTRDYRNDRRRQRYYYWGQGTQETVSS	high polyreactivity
QVQLVESGGGLVQAGGSLRLSCAASGSTFKRYAKGWYRQAPGKERELVAAITLSGGNTYYADSVKGRFTISRDNAKNTVYLQMNSLKPEDTAVYYCAARRYRGYDYWGQGTQVTVSS	high polyreactivity
QVQLVESGGGLVQAGGSLRLSCAASGLIFEYYAMGWYRQAPGKERELVAVINWSGASTYYADSVKGRFTITRDYAKNTVYLQMNSLKPEDTAVYYCAAGVLITGLRFDYWGQGTQVTVSS	low polyreactivity

**Q:** Entry under review: QVQLVESGGGLVQAGGSLRLSCAASGNIFLTYAMGWYRQAPGKERELVAAISRGGRTYYADSVKGRFTISRDNAKNTVYLQMNRLKPEDTAVYYCNVQPDRISRYDYWGQGTQVTVSS . Reported polyreactivity (PSR sort gate)?
**A:** high polyreactivity

---

assay-text: yeast display, Sf9 membrane polyspecificity reagent, FACS + sequencing; frameworks hold sequencing errors
measurement-type: polyreactivity (PSR sort gate)

ordered-residues	measurement-type	reported-value
QVQLVESWGGLVQAGGSLRLSCAASGFTLYYYAMGWYRPAPGKERELVARISLRGGRTYYADSVKGRFTISRDNAKTTVYLQMNSLKPEESAVYYCAAVGRYPITWESGESDYWGQGTQVTVSS	polyreactivity (PSR sort gate)	high polyreactivity
QVQLVESVGGLVQAGGSLRLSCAASGFIFGYNAMGWYRQAPGKERELVAAIDSGDSTYYADSVKGRFTISRDNAKNTVYLQMNSLKPEDTAVYFCATDVTFVYDFGYFQYDYWGQGTQVTVSS	polyreactivity (PSR sort gate)	low polyreactivity
QVQLVESGGGLVQAGGSLRLSCAASGSTFDYNAMGWYRQAPGKERELVAAITTVGITYYADSVKGRFTISRDNAKNTVYLQMNSLKPEDTAVYYCAARCVRYGGRYDYWGQGTQVTVSS	polyreactivity (PSR sort gate)	high polyreactivity
QVQLVESGGGLVQAGGSLRLSCAASGSTFVDNAMGWYRQAPGKEREMVAAIRYGSGGSTRYADSVKGRFTISRDNAKNTVYLQMNSLKPEDTAVYYCAADGYITVNYLRYDYWGQGTQVTVSS	polyreactivity (PSR sort gate)	low polyreactivity
